- assay-target: MCL-1 (Homo sapiens, UniProt Q07820)
- Sequence (Q07820 whole entry): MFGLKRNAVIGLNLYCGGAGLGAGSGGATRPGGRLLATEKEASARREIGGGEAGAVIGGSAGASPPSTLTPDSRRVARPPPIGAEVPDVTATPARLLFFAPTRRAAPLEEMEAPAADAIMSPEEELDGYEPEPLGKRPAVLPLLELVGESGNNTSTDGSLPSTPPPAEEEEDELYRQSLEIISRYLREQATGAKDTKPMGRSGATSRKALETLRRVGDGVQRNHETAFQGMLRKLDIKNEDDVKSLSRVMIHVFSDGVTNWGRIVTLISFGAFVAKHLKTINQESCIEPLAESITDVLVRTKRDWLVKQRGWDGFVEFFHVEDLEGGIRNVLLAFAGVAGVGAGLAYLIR
- experiment-summary: Protein-protein interaction assay MCL-1/Noxa BH3 peptide (MCL-1 assay), TR-FRET
- Type: binding
- measurement-context: MBP-MCL-1 / Noxa BH3-derived peptide, median
IC50 strictly less than 3 nM = satisfied. Otherwise not satisfied.

Examples from the recorded data:
## Task Does this compound meet the criterion IC50 < 3 nM? CC(=O)N1CCN(c2ccc(OCc3nn(C)c4c3-c3cccc5c(CCCOc6cccc7ccccc67)c(C(=O)O)n(c35)CCCCOC4)cc2)CC1 (racemic) [Example 1-24]
## Result satisfied

## Task Does this compound meet the criterion IC50 < 3 nM? COC1(c2ccc(OCc3nn(C)c4c3-c3cccc5c(CCCOc6cccc7ccccc67)c(C(=O)O)n(c35)CCCCOC4)cc2)CCOCC1 (single isomer, unassigned) [Example 1-67]
## Result not satisfied

## Task Does this compound meet the criterion IC50 < 3 nM? Cn1nc(C(F)(F)F)c2c1COCCCCn1c(C(=O)O)c(CCCOc3cccc4ccccc34)c3cccc-2c31 (racemic) [Example 216]
## Result not satisfied

## Task Does this compound meet the criterion IC50 < 3 nM? COC1(c2ccc(OCc3nn(C)c4c3-c3cccc5c(CCCOc6cccc7ccccc67)c(C(=O)O)n(c35)CCCCOC4)cc2)CCOCC1 (single isomer, unassigned) [Example 1-66]
## Result not satisfied

Field: next compound
## Task Does this compound meet the criterion IC50 < 3 nM? CN(C)S(=O)(=O)N1CCN(c2ccc(OCc3nn(C)c4c3-c3cccc5c(CCCOc6cccc7ccccc67)c(C(=O)O)n(c35)CCCCOC4)cc2)CC1 (single isomer, unassigned; enantiomer 2) [Example 1-20]
## Result satisfied
